Hello, the source for this data is ChEMBL document CHEMBL4616673, in case you need it.

# target.system: Dihydroorotate dehydrogenase (quinone), mitochondrial (Homo sapiens)
# assay.notes: Inhibition of human DHODH using dihydroorotate as substrate and CoQ10 as co-substrate preincubated for 30 mins followed by substrate addition by DCIP coupled microplate reader assay
pIC50: −log10 of the molar value.
endpoint: pIC50

O=C1c2ccccc2C(=O)c2c1nnn2-c1ccnc(Cl)c1 ... < 6.00
N#Cc1ccccc1-n1nnc2c1C(=O)c1ccccc1C2=O ... < 6.00
O=C1c2ccccc2C(=O)c2c1nnn2-c1ccc2c(c1)OCO2 ... < 6.00

In: Query (molecule): CC(C)c1ccc(-c2cc(F)c(-n3nnc4c3C(=O)c3ccccc3C4=O)c(F)c2)cc1 ; field requested: pIC50
Out: < 6.00

In: Another molecule: O=C1c2ccccc2C(=O)c2c1nnn2-c1ccc(Cl)nc1
Out: < 6.00

In: Another molecule: CC1(C)CC(=O)c2nnn(-c3cc(F)c(-c4ccccc4F)c(F)c3)c2C1
Out: < 6.00

----------
# target.system: Dihydroorotate dehydrogenase (quinone), mitochondrial (Homo sapiens, UniProt Q02127)
# Sequence (Q02127 whole entry): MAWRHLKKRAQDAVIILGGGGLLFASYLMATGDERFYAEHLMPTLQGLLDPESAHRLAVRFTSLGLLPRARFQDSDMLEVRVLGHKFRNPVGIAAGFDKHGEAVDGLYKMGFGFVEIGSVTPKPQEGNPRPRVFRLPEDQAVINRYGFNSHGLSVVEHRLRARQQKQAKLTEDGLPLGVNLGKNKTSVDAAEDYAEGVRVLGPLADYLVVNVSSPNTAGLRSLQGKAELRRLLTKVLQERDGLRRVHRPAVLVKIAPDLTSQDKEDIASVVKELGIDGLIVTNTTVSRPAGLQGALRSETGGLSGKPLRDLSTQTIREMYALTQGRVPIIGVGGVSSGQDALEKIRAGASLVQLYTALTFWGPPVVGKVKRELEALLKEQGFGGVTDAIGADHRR
# assay.notes: Inhibition of human DHODH using dihydroorotate as substrate and CoQ10 as co-substrate preincubated for 30 mins followed by substrate addition by DCIP coupled microplate reader assay
pIC50: −log10 of the molar value.
endpoint: pIC50

In: Query (compound): CC(C)c1ccc(-c2ccc(-n3nnc4c3C(=O)c3ccccc3C4=O)c(F)c2)cc1 ; field requested: pIC50
Out: < 6.00

In: Another compound: COc1ccccc1-n1nnc2c1C(=O)c1ccccc1C2=O
Out: < 6.00

In: Another compound: Cc1cc(-c2ccc(-n3nnc4c3C(=O)c3ccccc3C4=O)cc2)ccn1
Out: < 6.00

In: Another compound: Nc1cccc(-n2nnc3c2C(=O)c2ccccc2C3=O)c1
Out: < 6.00

In: Another compound: O=C1c2ccccc2C(=O)c2c1nnn2-c1cccc(O)c1
Out: < 6.00

In: Another compound: O=C1c2cc(O)ccc2C(=O)c2c1nnn2-c1cc(F)c(-c2ccccc2F)c(F)c1
Out: < 6.00

In: Another compound: COc1ccc2c(c1)C(=O)c1c(nnn1-c1cc(F)c(-c3ccccc3F)c(F)c1)C2=O
Out: < 6.00

----------
# target.system: UniProt:Q02127
# assay.notes: Inhibition of human DHODH using dihydroorotate as substrate and CoQ10 as co-substrate preincubated for 30 mins followed by substrate addition by DCIP coupled microplate reader assay
endpoint: IC50 (nM)

Some compounds with known IC50 results, for comparison:
Nc1cccc(-c2ccc(-n3nnc4c3C(=O)c3ccccc3C4=O)cc2)c1 ... 3.1
O=C1c2cc(F)ccc2C(=O)c2c1nnn2-c1cc(F)c(-c2ccccc2F)c(F)c1 ... 98
O=C1c2ccccc2C(=O)c2c1nnn2-c1cc(F)c(-c2cccc(CO)c2)c(F)c1 ... 1.2
OC1c2ccccc2C(O)c2c1nnn2-c1cc(F)c(-c2ccccc2F)c(F)c1 (stereo unspecified) ... 5.1
Nc1ccc(-c2ccc(-n3nnc4c3C(=O)c3ccccc3C4=O)cc2)cc1 ... 25

a = CC(C)c1ccc(-n2nnc3c2C(=O)c2ccccc2C3=O)cc1
b = COc1cccc(-c2ccc(-n3nnc4c3C(=O)c3ccccc3C4=O)cc2)c1
In: Lower value for measured IC50? Options: a , b Response format: the label of the selected entry.
Out: b
